# assayDetails: inhibitors of the yeast RAM network, pilot screen, dse1pr::URA3 reporter, 5-FOA selection (AID 869);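 also: 0% = DMSO wells with no growth and 100% = 10 µM 1-NA-PP1 with full growth; RAM network block rescues cells from 5-FOA so hits raise OD615 growth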
# conditionLabel: S. cerevisiae dse1pr::URA3 5-FOA growth, OD615, 2 d; at 10 µM; hits give high values; strain carries analog-sensitive mutant Cbk1 kinase
testReadout: inhibition (%)
The reply should be a number in %, with the unit left off.

QUERY: I would be grateful if you could share the reported inhibition for "Cc1cc(=O)oc2c(N)c(O)ccc12" .
RESULT: 0.53

QUERY: I would be grateful if you could share the reported inhibition for COc1ccccc1C1NC(=O)NC(C)=C1C(=O)OC1CCCCC1 (stereo unspecified) .
RESULT: 2.65
